Biological target: Cytochrome P450 2C19 (Homo sapiens) (UniProt P33261)
Sequence (P33261 whole entry, looked up): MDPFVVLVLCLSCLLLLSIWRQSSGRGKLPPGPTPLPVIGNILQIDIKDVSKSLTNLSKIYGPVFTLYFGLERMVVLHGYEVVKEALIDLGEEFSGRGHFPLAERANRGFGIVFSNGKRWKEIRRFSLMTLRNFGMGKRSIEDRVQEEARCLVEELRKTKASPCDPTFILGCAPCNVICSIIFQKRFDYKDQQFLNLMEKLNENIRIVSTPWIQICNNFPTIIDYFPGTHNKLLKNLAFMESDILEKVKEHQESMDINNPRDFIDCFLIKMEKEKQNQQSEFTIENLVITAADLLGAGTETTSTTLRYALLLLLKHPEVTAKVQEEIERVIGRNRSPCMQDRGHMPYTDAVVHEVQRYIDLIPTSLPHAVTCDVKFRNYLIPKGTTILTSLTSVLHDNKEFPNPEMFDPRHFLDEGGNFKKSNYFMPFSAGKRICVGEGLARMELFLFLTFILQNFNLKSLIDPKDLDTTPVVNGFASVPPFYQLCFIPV
Assay: Cytochrome panel assay with activity outcomes
Details: recombinant CYP, pro-luciferin dealkylation, luminescence, p450-cyp2c19; series mostly up to 57.1 µM
Among all 16,000 compounds or so, about 5,800 (36%) were called active. Not shown: some 23% with an inconclusive outcome. The list shows a part of the results.
ASSAY_METRIC: AC50

Consider the worked cases shown below.
Prompt: What AC50 value was documented for this compound, Cc1ccc(C(=O)N2CCN(c3cc(=O)[nH]nc3-c3ccccc3)CC2)cc1 ?
Completion: 20 µM (active)

Prompt: Form field: reported AC50 of COc1cc2c(CCNC(C)=O)c[nH]c2cc1Cl
Completion: 5.01 µM (active)

Prompt: Field request: AC50 | item: Nc1ccc(S(=O)(=O)Nc2cnc3ccccc3n2)cc1
Completion: inactive

Prompt: Would you kindly share the measured AC50 for CCCc1ccc(C2C3=C(CC(C)(C)CC3=O)NC3=C2C(=O)c2ccccc23)cc1 (stereo unspecified) ?
Completion: 4.47 µM (active)

Prompt: I am curious: what AC50 value has been reported for Cn1cnnc1SCC(=O)n1c2ccccc2c2ccccc21 ?
Completion: 8.91 µM (active)

Prompt: Using the record for COc1cc2c(cc1OC)C(C(=O)N1CCOCC1)C(c1cccs1)N(C)C2=O (stereo unspecified) , report its AC50.
Completion: inactive

Prompt: Which AC50 is listed for COc1cccc(-c2ccc3ncnc(N(C)C)c3c2)c1 ?
Completion: 3.16 µM (active)

Prompt: I am curious: what AC50 value has been reported for Cc1ccc(S(=O)(=O)Nc2nc3ccccc3nc2N2CCc3ccccc3C2)cc1 ?
Completion: 5.01 µM (active)

Prompt: Which AC50 value belongs to CCOc1ccc(-c2c[n+](=O)c3c(n2[O-])CCCC3)c(OCC)c1 ?
Completion: inactive

Prompt: // returns reported AC50 for input CC(=O)NCCc1c[nH]c2ccc(O)cc12
Completion: inactive

Next:
Prompt: Fill in the blank: the reported AC50 of COc1cc2c(CCNC(C)=O)c[nH]c2cc1O is ____.
Completion: inactive

src = PubChem BioAssay AID1851
